The origin of these recorded values is patent US20170247475A1.

Assayed System: T1, recombinant human VEGF165 (human, UniProt P15692-4 27-191)
T1 construct: also called hVEGF165; rhVEGF165
T1 sequence (P15692 other isoform, or with tags, fused parts or gaps limits assumed): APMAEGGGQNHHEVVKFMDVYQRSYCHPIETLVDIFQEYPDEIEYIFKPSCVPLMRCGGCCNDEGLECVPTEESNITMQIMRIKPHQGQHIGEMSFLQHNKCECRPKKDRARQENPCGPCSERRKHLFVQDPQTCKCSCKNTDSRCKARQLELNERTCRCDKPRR
Protocol: VEGF165/VEGFR2 AlphaScreen
Property Name: IC50 (pM)
// return numeric value only (unit: pM, not printed)

Example cases with answers are listed next.
• VEGFBII112D11 (VHH) VHH: EVQLVESGGGLVQPGGSLRLSCEASGRTFSSYSMGWFRQAPGKEREFVVAISKGGYKYDSVSLEGRFTISRDNAKNTVYLQINSLRPEDTAVYYCASSRAYGSSRLRLADTYEYWGQGTLVTVSS = 221
• VEGFBII113A08 (VHH) VHH: EVQLVESGGGLVQTGGSLRLSCEVSGRTFSSYSMGWFRQAPGKEREFVVAISKGGYKYDSVSLEGRFTISKDNAKNTVYLQINSLRPEDTAVYYCASSRAYGSSRLRLADTYEYWGQGTLVTVSS = 253
• VEGFBII111G06 (VHH) VHH: EVQLVESGGGLVQPGGSLRLSCAASGRTFSSYSMGWFRQAPGKEREFVVAISKGGYKYDSVSLEGRFTISRDNAKNTVYLQMNSLRPEDTAVYYCASSRAYGSSRLRLADTYEYWGQGTLVTVSS = 366
• VEGFBII118E10 (VHH, VEGFBII23B04 with the S60A mutation, purified protein) VHH: EVQLVESGGGLVQTGDSLRLSCEVSGRTFSSYSMGWFRQAQGKEREFVVAISKGGYKYDAVSLEGRFTISKDNAKNTVYLQINSLKPEDTAVYYCASSRAYGSSRLRLADTYEYWGQGTQVTVSS = 189
• VEGFBII114C09 (VHH) VHH: EVQLVESGGGLVQPGDSLRLSCEVSGRTFSSYSMGWFRQAPGKEREFVVAISKGGYKYDSVSLEGRFTISKDNAKNTVYLQINSLRPEDTAVYYCASSRAYGSSRLRLADTYEYWGQGTLVTVSS = 215

Let's switch to this binder now.
Input line: Please look up its IC50: VEGFBII114D03 (VHH) VHH: EVQLVESGGGLVQTGDSLRLSCAVSGRTFSSYSMGWFRQAQGKEREFVVAISKGGYKYDSVSLEGRFTISKDNAKNTVYLQINSLRPEDTAVYYCASSRAYGSSRLRLADTYEYWGQGTLVTVSS
Output line: 227
